Hi there, I'd appreciate the recorded Fold Activity for every entry that follows.
- PROTOCOL_SUMMARY: Saturation mutagenesis of SEQ ID NO:109: dicamba decarboxylation activity of point mutants (CO2 released), fold of backbone (Tables 7, 8, Megatable 1)
- MEASUREMENT_PARAMETERS: decarboxylation activity (CO2 released) of point mutant vs unmutated backbone protein; backbone SEQ ID NO: 109
One number for each entry, in fold.

Report Fold Activity for each item below.
1. 46 (protein, listed as Rhodococcus opacus) MARIITLEEHYLDPAIAAASAPLARELSPDFAAAYDPASGLSYTPSAQVLQDLGQRRIADMDTHGISMQVLSCLTTQQVPADVAPDLVRAANDTAAAAVRAHPDRFAAFAALPTTAPDAAATELARCIDDLGFVGTMINGRTDGEFLDAPRFDPILATAAARNVPIYLHPAVPPRATSDSNYAGLAPLVTARLQTSAWGWHQETAVHFLHLVLSGVLDRYPNLQFILGHWGEMIPFYLDRLDEALPQAVTNLDRTISDYVRENVYITPSGMFNQAQLQYCVETLGVDRILYSVDYPFIGNDGAVSFLDEANLPDEAKHQIAHQNTEKLLGL
2. 31 (protein, listed as Agrobacterium sp.) MAQGKVALEEHFAIPETLQDSAGFVPGDYWKELQHRLLDIQDTRLKLMDAHGIETMILSLNAPAVQAIPDKTKAIEIARRANDVLAEECAKRPDRFLAFAALPLQDPDAATEELQRCVNDLGFVGALVNGFSQEGDGQTPLYYDLPQYRPFWGEVEKLDVPFYLHPRNPLPQDSRIYDGHPWLLGPTWAFAQETAVHALRLMASGLFDEHPRLNIILGHMGEGLPYMMWRIDHRNAWVKLPPRYPAKRRFMDYFNENFHITTSGNFRTQTLIDAILEIGADRILFSTDWPFENIDHASDWFNATSIAEADRVKIGRTNARRLFKLDGA

1: 1.1; 2: 1.7
